- test_system: MYLK (human) (UniProt Q15746)
- Sequence (Q15746 whole entry, looked up): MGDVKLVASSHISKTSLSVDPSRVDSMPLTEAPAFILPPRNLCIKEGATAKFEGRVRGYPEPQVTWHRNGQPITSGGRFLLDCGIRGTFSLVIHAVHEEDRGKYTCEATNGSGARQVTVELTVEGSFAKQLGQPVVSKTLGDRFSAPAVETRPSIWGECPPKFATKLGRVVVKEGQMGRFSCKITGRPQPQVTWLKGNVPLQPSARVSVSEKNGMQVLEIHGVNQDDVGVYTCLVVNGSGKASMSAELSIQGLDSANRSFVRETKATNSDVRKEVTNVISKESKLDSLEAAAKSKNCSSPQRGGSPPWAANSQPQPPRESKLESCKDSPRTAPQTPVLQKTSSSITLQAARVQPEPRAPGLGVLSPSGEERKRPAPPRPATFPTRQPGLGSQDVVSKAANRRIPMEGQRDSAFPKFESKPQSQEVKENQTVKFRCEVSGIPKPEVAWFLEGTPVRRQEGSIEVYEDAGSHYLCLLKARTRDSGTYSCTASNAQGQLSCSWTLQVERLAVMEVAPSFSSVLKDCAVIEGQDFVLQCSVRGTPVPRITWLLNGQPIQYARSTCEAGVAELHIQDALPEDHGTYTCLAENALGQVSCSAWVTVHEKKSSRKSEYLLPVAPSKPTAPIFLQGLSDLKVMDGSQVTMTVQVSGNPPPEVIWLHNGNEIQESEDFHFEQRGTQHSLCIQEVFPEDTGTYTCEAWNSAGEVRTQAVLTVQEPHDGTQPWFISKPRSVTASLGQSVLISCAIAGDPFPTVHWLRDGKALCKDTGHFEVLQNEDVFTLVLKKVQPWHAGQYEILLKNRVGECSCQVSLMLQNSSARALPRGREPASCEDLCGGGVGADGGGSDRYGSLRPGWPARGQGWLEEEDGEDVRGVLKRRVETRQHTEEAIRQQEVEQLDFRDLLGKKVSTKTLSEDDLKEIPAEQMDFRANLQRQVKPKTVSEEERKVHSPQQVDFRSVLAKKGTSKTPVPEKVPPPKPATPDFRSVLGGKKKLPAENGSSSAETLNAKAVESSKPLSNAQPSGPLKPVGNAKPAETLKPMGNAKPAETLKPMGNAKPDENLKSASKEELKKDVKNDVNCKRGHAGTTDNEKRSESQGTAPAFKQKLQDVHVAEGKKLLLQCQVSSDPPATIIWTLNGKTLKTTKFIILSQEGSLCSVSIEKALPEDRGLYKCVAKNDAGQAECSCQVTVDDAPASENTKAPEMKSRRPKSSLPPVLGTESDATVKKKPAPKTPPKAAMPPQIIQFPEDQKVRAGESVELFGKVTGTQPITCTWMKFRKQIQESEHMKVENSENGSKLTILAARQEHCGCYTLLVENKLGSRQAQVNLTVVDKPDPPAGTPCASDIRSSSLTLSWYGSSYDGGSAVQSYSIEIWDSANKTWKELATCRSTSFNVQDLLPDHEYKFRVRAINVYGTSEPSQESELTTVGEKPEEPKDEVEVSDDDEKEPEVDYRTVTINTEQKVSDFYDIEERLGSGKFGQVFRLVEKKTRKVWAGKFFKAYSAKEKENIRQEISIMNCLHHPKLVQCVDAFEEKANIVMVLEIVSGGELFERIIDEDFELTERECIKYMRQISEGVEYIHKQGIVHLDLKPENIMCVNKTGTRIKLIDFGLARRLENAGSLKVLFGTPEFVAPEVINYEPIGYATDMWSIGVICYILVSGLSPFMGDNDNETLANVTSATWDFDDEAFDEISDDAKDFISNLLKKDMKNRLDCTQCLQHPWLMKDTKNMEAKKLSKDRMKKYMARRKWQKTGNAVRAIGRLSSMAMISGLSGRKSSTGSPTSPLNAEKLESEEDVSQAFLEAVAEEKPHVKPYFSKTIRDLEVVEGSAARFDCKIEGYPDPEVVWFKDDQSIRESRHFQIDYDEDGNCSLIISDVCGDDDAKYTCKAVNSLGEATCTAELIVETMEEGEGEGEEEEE
- experimental_protocol: radiometric filter-binding kinase assay, Kinase HotSpot
- run_parameters: compound 0.5 µM; ATP 10 µM
parameter_measured: residual activity (%)
Your answer should be a plain number; it is taken to be in %.

• CN([C@@H](Cc1ccc(OS(=O)(=O)c2cccc3cnccc23)cc1)C(=O)N1CCN(c2ccccc2)CC1)S(=O)(=O)c1cccc2cnccc12 = 98.2
• CC(=O)O/N=C1\C(=C2\C(=O)Nc3cc(Br)ccc32)Nc2ccccc21 = 74.2
• O=C1NC(=O)C(c2cn(CCCO)c3ncccc23)=C1c1cnccn1 = 74
• Cn1cnc2cc3c(Nc4cccc(Br)c4)ncnc3cc21 = 83.3
• Cn1nc2c3c(cccc31)C(=O)c1ccccc1-2 = 77.4
• O=C1NC(=O)C(c2c[nH]c3ccccc23)=C1c1c[nH]c2ccccc12 = 74.4
• COc1ccc(OC)c2c(=S)c3ccccc3[nH]c12 = 89.8
• COc1cc2ncc(-c3ccccc3)nc2cc1OC = 97.4

Req: For MYLK (human) (UniProt Q15746), provide residual activity of `COc1cc2ncnc(N3CCN(C(=O)Nc4ccc(Oc5ccccc5)cc4)CC3)c2cc1OC` please.
Resp: 101

Req: What would you report for `O=C1Cc2c([nH]c3ccc(Br)cc23)-c2ccccc2N1` ?
Resp: 96.3

Value source: the kinase profiling compilation of Christmann-Franck et al. (2016)
